pIC50: −log10 of the molar value.
// values below are pIC50; system is wild-type un-phosphorylated FGFR3 protein (Homo sapiens, UniProt P22607)
Sequence (P22607 23-806): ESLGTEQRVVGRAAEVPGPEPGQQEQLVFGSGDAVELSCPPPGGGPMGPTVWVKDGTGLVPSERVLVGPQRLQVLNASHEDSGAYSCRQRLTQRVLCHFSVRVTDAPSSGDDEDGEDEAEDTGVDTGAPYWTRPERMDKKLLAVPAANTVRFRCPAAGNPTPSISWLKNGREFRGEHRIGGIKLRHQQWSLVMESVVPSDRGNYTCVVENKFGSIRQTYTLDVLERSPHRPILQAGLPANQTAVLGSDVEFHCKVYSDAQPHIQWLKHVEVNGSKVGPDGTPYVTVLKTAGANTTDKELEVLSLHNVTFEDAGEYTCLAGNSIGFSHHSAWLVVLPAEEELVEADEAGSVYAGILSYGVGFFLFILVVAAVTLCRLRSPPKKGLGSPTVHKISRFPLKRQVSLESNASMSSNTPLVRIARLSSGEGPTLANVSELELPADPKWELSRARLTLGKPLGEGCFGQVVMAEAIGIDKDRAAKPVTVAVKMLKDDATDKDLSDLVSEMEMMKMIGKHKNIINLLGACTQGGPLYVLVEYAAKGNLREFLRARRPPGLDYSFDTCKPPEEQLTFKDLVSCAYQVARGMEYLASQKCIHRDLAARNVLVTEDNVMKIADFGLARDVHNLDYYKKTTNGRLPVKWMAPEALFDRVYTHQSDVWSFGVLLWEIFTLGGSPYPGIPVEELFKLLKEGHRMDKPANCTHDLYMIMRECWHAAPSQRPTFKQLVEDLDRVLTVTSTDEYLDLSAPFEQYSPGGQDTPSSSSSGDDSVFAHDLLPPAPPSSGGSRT

Lookup: Name the recorded pIC50 for "CN(C)C(=O)c1ccc(Cn2cc(-c3cnc4ccn5c(CO)c(-c6c(Cl)cccc6Cl)nc5c4c3)cn2)cn1" .
Found: > 9.00

Lookup: What value of pIC50 has been recorded for this entry: CC(O)Cn1cc(-c2cnc3ccn4c(CO)c(-c5c(Cl)cccc5Cl)nc4c3c2)cn1 (single isomer, unassigned) [18 peak 2]
Found: 8.30 to 9.00

Lookup: Param item = "CN1CCC(n2cc(-c3cnc4ccn5c(CCO)c(-c6c(Cl)cccc6Cl)nc5c4c3)cn2)CC1" ; retrieve measured pIC50.
Found: 8.30 to 9.00

Lookup: What value of measured pIC50 is listed for CC(C#N)n1cc(-c2cnc3ccn4c(CO)c(-c5c(Cl)cccc5Cl)nc4c3c2)cn1 (single isomer, unassigned) [17 peak 2] ?
Found: > 9.00

====

Tested on: RT-112/84 cell line
Experiment: Luminescent Viability Assay (CellTiter-Glo)
Assay type: cell-based
Settings: RT-112/84 cell line (bladder, FGFR3-TACC3); 3 days
Give IC50 for every item shown.

Lookup: Checklist item: IC50 tested on RT-112/84 cell line, entry O=S1(=O)CCCC(n2cc(-c3cnc4ccn5c(CO)c(-c6c(Cl)cccc6Cl)nc5c4c3)cn2)C1 (single isomer, unassigned) [26 peak 2] , value?
Found: < 10 nM

Lookup: Observed IC50 on RT-112/84 cell line for CC(O)Cn1cc(-c2cnc3ccn4c(CO)c(-c5c(Cl)cccc5Cl)nc4c3c2)cn1 (single isomer, unassigned) [18 peak 2] , please.
Found: 10 to 50 nM

Lookup: What value of IC50 on RT-112/84 cell line does CC(C#N)n1cc(-c2cnc3ccn4c(CO)c(-c5c(Cl)cccc5Cl)nc4c3c2)cn1 (single isomer, unassigned) [17 peak 2] have?
Found: < 10 nM

Lookup: Notebook entry, RT-112/84 cell line assay: IC50 of CC(CC#N)n1cc(-c2cnc3ccn4c(CO)c(-c5c(Cl)cccc5Cl)nc4c3c2)cn1 (single isomer, unassigned) [23 peak 2] = ?
Found: 10 to 50 nM
